Target: human TLR9 (Homo sapiens, UniProt Q9NR96)
Sequence (Q9NR96 26-1032): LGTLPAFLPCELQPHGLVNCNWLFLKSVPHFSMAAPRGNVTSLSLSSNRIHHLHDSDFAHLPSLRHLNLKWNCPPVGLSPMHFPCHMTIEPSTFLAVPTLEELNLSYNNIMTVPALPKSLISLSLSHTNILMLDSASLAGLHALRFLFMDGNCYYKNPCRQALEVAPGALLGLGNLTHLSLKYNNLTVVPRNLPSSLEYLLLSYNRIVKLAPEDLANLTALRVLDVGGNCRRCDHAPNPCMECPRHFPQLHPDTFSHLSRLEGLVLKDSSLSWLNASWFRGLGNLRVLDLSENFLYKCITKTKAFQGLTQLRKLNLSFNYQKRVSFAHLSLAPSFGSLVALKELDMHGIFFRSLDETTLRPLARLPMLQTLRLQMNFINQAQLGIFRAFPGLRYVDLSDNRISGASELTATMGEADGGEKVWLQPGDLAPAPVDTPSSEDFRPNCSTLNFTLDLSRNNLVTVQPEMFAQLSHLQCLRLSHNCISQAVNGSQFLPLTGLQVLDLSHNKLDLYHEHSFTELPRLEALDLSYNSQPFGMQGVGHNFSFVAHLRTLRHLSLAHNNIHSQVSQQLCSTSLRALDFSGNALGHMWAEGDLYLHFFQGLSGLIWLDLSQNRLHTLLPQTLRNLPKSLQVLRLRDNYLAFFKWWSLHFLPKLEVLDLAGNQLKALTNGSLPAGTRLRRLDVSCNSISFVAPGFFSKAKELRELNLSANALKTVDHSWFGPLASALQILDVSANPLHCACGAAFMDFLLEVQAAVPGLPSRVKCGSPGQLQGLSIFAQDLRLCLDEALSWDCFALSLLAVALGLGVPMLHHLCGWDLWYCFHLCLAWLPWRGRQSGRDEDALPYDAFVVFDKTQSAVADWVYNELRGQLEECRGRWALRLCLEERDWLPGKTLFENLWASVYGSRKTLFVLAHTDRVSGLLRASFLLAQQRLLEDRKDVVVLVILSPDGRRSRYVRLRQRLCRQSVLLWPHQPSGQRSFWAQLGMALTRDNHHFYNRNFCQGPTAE
Assay: TLR9 inhibition reporter assay (HEK-Blue cells, SEAP reporter)
Conditions: HEK-Blue cells overexpressing human TLR9; stimulated with ODN2006 5 nM; 22 hour incubation; SEAP readout
assay readout: pIC50
Friendly reminder that pIC50 comes from taking -log10 of the concentration in mol/L.

Note to self: pIC50 of Cc1cc(C2CCN(C3CC4CCC(C3)N4C3CCC3)CC2)cn2cc(-c3ccc(S(C)(=O)=O)cc3)nc12 (single isomer, unassigned) [Example 83] with human TLR9 (Homo sapiens, UniProt Q9NR96) was 7.92

Note to self: pIC50 of Cc1cc(C2CCN(C3CCN(CC4CC4)CC3)CC2)cn2cc(-c3ccc(S(C)(=O)=O)cc3)nc12 [Example 92] with human TLR9 (Homo sapiens, UniProt Q9NR96) was 7.30

Note to self: pIC50 of COc1ccc(-c2cn3c(n2)CCC(C2CCN(C4CC5(C4)CN(CC(C)C)C5)CC2)C3)cc1OC (single isomer, unassigned) [Example 53] with human TLR9 (Homo sapiens, UniProt Q9NR96) was 7.66

Note to self: pIC50 of CS(=O)(=O)c1ccc(-c2cn3cc(C4CCN(C5CCN(C6CCOCC6)CC5)CC4)cc(F)c3n2)cc1 [Example 112] with human TLR9 (Homo sapiens, UniProt Q9NR96) was 7.01

Note to self: pIC50 of COc1ccc(-c2nc3n(n2)CC(C2CC4CCC(C2)N4C2CCN(C(C)C)CC2)CC3)cc1OC (stereo not shown) [Example 148] with human TLR9 (Homo sapiens, UniProt Q9NR96) was 6.52

Note to self: pIC50 of COc1ccc(-c2cn3cc(C4CCN(C5CC6(C5)CN(CC5CC5)C6)CC4)cc(C)c3n2)cc1OC [Example 16] with human TLR9 (Homo sapiens, UniProt Q9NR96) was 7.85

Note to self: pIC50 of COc1ccc(-c2cn3c(n2)CCC(C2CCN(C4CCN(C(C)C)CC4)CC2)C3)cc1OC (racemic) [Example 34] with human TLR9 (Homo sapiens, UniProt Q9NR96) was 7.43
